Ref: PubChem BioAssay AID256

Exercise: for every item that follows, state its recorded T/C.
test system: CD2F1 mice, L1210 leukemia ip, survival T/C; test: NCI In Vivo Anticancer Drug Screen. Data for tumor model L1210 Leukemia (intraperitoneal) in CD2F1 (CDF1) mice; settings: endpoint: mean survival time; dose: 50.0 mg/kg/injection; schedule: Q04DX002 (ip); vehicle: saline; higher = longer survival
Toxic doses and inconclusive results are not listed.

Entry CCCCC1(C(C)CC(C)(C)C)NC(C)(C)CC(C)O1 (stereo not given) ; T/C = 101 % of control

Measured T/C of CC1(C)NC(=O)C2CC21C (stereo not given) : 112 % of control

Looking up C[S+](C)c1ccccc1 , I found its T/C recorded as 100 % of control

Record C1c2nnnn2Cc2nnnn21 , field T/C: 93 % of control

Note to self: T/C recorded for CC1(C[N+](C)(C)C)COC(C)(C)O1 (stereo not given) was 106 % of control
